targetEntity: HSV-1 ribonucleotide reductase (Human herpesvirus 1)
Construct: HSV-1 ribonucleotide reductase (partially purified) was obtained from quiescent BHK-21/C13 cells infected with strain F HSV-1 virus; made in house; host or cells: quiescent BHK-21/C13 cells infected with HSV-1 strain F (virus-encoded enzyme, partially purified)
Sequence (P08543 whole entry): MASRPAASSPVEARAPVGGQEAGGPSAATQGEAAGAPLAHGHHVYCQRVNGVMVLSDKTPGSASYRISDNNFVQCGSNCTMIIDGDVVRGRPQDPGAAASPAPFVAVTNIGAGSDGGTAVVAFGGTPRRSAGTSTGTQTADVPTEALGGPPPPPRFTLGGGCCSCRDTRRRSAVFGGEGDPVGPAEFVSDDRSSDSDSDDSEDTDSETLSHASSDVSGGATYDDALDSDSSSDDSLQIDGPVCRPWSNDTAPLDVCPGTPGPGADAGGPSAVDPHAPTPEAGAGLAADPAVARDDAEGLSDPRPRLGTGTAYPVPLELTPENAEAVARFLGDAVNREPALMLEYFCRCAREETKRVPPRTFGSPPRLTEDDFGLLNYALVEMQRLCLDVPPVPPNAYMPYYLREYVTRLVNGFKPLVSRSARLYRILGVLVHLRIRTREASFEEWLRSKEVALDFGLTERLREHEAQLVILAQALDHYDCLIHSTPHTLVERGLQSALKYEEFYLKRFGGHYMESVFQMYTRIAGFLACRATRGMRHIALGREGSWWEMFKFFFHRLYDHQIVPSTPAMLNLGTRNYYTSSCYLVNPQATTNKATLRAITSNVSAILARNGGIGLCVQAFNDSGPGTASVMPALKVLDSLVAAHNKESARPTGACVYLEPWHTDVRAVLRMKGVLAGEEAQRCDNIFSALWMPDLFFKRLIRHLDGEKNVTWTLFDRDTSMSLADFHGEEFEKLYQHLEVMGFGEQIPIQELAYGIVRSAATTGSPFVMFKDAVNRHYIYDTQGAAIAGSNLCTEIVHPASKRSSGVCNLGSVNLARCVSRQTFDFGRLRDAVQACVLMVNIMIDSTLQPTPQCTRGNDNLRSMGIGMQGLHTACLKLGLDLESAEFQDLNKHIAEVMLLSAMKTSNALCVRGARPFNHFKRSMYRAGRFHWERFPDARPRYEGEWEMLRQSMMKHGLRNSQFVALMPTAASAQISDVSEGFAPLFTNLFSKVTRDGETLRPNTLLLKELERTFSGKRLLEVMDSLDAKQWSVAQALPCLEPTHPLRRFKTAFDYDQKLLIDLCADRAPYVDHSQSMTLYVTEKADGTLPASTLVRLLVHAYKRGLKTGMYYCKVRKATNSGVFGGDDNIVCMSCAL
testDescription: Inhibition of Herpes Simplex Virus (HSV-1) ribonucleotide reductase
Type: biochemical
cond: Table I; partially purified enzyme from BHK-21/C13 cells infected with strain F HSV-1; mean of four assays
observedProperty: IC50 (nM)
Give the number; nM is assumed, so skip it.

# example entries with known answers
{"columns": ["molecule", "uom", "IC50"],
 "data": [
  ["CCC(CC)NC(=O)NC(C(=O)CC(CC(=O)C1CCCC1)C(=O)NC(C(=O)NCC(C)(C)C)C1(C(=O)O)CCCC1)C(C)(C)C (stereo not drawn)", "nM", 220],
  ["CCCC(CCC)NC(=O)NC(C(=O)CC(CC(=O)C(C)(C)C)C(=O)NC(C(=O)NC(CC(C)(C)C)C(=O)O)C1(C(=O)O)CCCC1)C(C)(C)C (stereo not drawn)", "nM", 150],
  ["CC(C)C(C(=O)NC(C(=O)CC(CC(=O)C(C)(C)C)C(=O)NC(C(=O)NCC(C)(C)C)C(C)C(=O)O)C(C)(C)C)N(C)C(=O)CCc1ccccc1 (stereo not drawn)", "nM", 330],
  ["CCCC(CCC)NC(=O)NC(C(=O)CC(CC(=O)C(C)(C)C)C(=O)NC(C(=O)NC(CO)CC(C)(C)C)C1(C(=O)O)CCCC1)C(C)(C)C (stereo not drawn)", "nM", 200]
]}

[Q] Quick one: IC50 for CCC(CC)NC(=O)NC(C(=O)CC(CC(=O)N1CCCC1)C(=O)NC(C(=O)NC(CO)CC(C)(C)C)C1(C(=O)O)CCCC1)C(C)(C)C (stereo not drawn) ?
[A] 170

[Q] Quick one: IC50 for CCC(CC)NC(=O)NC(C(=O)CC(CC(=O)C(C)(C)C)C(=O)NC(C(=O)NC(CO)CC(C)(C)C)C1(C(=O)O)CCCC1)C(C)(C)C (stereo not drawn) ?
[A] 150

Data origin: patent EP0560267B1
